Test system: Kluyveromyces marxianus
METHOD: Antifungal activity against Candida kefyr isolated from candidemia patient by AFST-EUCAST microdilution method
Format: functional
Numbered stars: 1 amine (or outer) side, 2 acyl side, 3 side chain; on linkers, the order of the positions; unused ones are H or OH. Bridge positions count the residues as written; N and C are the ends. Square brackets hold non-standard residues; d marks the D form. Peptide text beside a SMILES is read from it. * marks the point of attachment. hTyr(3S-OH,4S-OH,3'-OSO3H) = N[C@H](C(=O)O)[C@H](O)[C@@H](O)c1ccc(O)c(OS(=O)(=O)O)c1; pTerphenylCO(4''-OnC5H11) = CCCCCOc1ccc(-c2ccc(-c3ccc(C(=O)*)cc3)cc2)cc1; Orn(4R-OH,5R-OH) = O=C([C@H](C[C@@H](O)[C@@H](O)N[*:3])N[*:1])[*:2]; hTyr(3S-OH,4S-OH) = N[C@H](C(=O)O)[C@H](O)[C@@H](O)c1ccc(O)cc1; Pro(3S-OH,4S-Me) = C[C@H]1CN[C@H](C(=O)O)[C@H]1O; X1 = CCCCCOc1ccc(-c2cc(-c3ccc(C(=O)*)cc3)no2)cc1; Gln(3R-OH) = NC(=O)C[C@@H](O)[C@H](N)C(=O)O; Hyp = O=C(O)[C@@H]1C[C@@H](O)CN1
Can you tell me MIC for the items I'm about to list?
Answers are plain numbers, in µg/mL.

1. CCCCCOc1ccc(-c2cc(-c3ccc(C(=O)N[C@H]4C[C@@H](O)[C@@H](O)NC(=O)[C@@H]5[C@@H](O)[C@@H](C)CN5C(=O)[C@H]([C@H](O)CC(N)=O)NC(=O)[C@H]([C@H](O)[C@@H](O)c5ccc(O)c(OS(=O)(=O)O)c5)NC(=O)[C@@H]5C[C@@H](O)CN5C(=O)[C@H]([C@@H](C)O)NC4=O)cc3)no2)cc1 [MICAFUNGIN] (X1-[Orn(4R-OH,5R-OH)]T[Hyp][hTyr(3S-OH,4S-OH,3'-OSO3H)][Gln(3R-OH)][Pro(3S-OH,4S-Me)]; lactam 1-C) ... 4

Please find the next molecule below.
Which value of MIC has been reported for CCCCCOc1ccc(-c2ccc(-c3ccc(C(=O)N[C@H]4C[C@@H](O)[C@@H](O)NC(=O)[C@@H]5[C@@H](O)[C@@H](C)CN5C(=O)[C@H]([C@@H](C)O)NC(=O)[C@H]([C@H](O)[C@@H](O)c5ccc(O)cc5)NC(=O)[C@@H]5C[C@@H](O)CN5C(=O)[C@H]([C@@H](C)O)NC4=O)cc3)cc2)cc1 [ANIDULAFUNGIN] ({pTerphenylCO(4''-OnC5H11)}-[Orn(4R-OH,5R-OH)]T[Hyp][hTyr(3S-OH,4S-OH)]T[Pro(3S-OH,4S-Me)]; lactam 1-C) in the records?
16

###

Test system: Wickerhamomyces anomalus
METHOD: Antifungal activity against Candida pelliculosa isolated from candidemia patient by AFST-EUCAST microdilution method
Format: functional
ASSAY CONDITIONS: Hansenula anomala
Can you tell me MIC for the items I'm about to list?
Field: value (include unit after the number)

1) C[C@@H]1[C@H](O)[C@@H](C)/C=C/C=C/C=C/C=C/C=C/C=C/C=C/[C@H](O[C@@H]2O[C@H](C)[C@@H](O)[C@H](N)[C@@H]2O)C[C@@H]2O[C@](O)(C[C@@H](O)C[C@@H](O)[C@H](O)CC[C@@H](O)C[C@@H](O)CC(=O)O[C@H]1C)C[C@H](O)[C@H]2C(=O)O [AMPHOTERICIN B] ... 0.25 µg/mL
2) OC(Cn1cncn1)(Cn1cncn1)c1ccc(F)cc1F [FLUCONAZOLE] ... 2 µg/mL
3) Nc1nc(=O)[nH]cc1F [FLUCYTOSINE] ... 0.12 µg/mL
4) CC[C@@H]([C@H](C)O)n1ncn(-c2ccc(N3CCN(c4ccc(OC[C@@H]5CO[C@@](Cn6cncn6)(c6ccc(F)cc6F)C5)cc4)CC3)cc2)c1=O [POSACONAZOLE] ... 0.03 µg/mL
5) CC[C@H](C)C[C@H](C)CCCCCCCCC(=O)N[C@H]1C[C@@H](O)[C@@H](NCCN)NC(=O)[C@@H]2[C@@H](O)CCN2C(=O)[C@H]([C@H](O)CCN)NC(=O)[C@H]([C@H](O)[C@@H](O)c2ccc(O)cc2)NC(=O)[C@@H]2C[C@@H](O)CN2C(=O)[C@H]([C@@H](C)O)NC1=O [CASPOFUNGIN] ... 0.03 µg/mL

Item: CCC(C)n1ncn(-c2ccc(N3CCN(c4ccc(OCC5COC(Cn6cncn6)(c6ccc(Cl)cc6Cl)O5)cc4)CC3)cc2)c1=O (stereo unspecified) [ITRACONAZOLE] Test system: Wickerhamomyces anomalus Read-out: MIC Value: ?
0.25 µg/mL
